Reference source for all entries: patent US20170342021A1

system: DLD-1; assay: CellTiter-Glo growth inhibition, DLD-1; type: cell-based, human; details: 384-well plates, ten-fold serial dilutions, ras-mutant line
readout.type: IC50 (µM)
Quick note: give the figure in µM, leave out the unit.

Q. For the molecule O=C1Nc2ccc(I)cc2/C1=C/c1cc(Br)c(O)c(Br)c1 [GW5074] , give its measured IC50 value.
A. 7.75

====

tested on: DLD-1; test: CellTiter-Glo growth inhibition, DLD-1; format: cell-based, human; settings: Homo sapiens, DLD-1, 384-well plates, ten-fold serial dilutions, ras-mutant line
readout.type: pIC50
Reminder that pIC50 means the negative base-10 logarithm of the concentration expressed in mol/L.

>>> print(df.to_string())
                               given_smiles   val
0  OCCn1cc(-c2ccc3c(c2)CC/C3=N\O)c(-c2ccncc2)n1  5.12

Q. For the compound CCCS(=O)(=O)Nc1ccc(F)c(C(=O)c2c[nH]c3ncc(-c4ccc(Cl)cc4)cc23)c1F , give its measured pIC50 value.
A. 5.25

====

system: HT-29; experiment: CellTiter-Glo growth inhibition, HT-29; format: cell-based, human; details: Homo sapiens, HT-29, 384-well plates, ten-fold serial dilutions, wild type Ras line
readout.type: IC50 (µM)
Quick note: give the figure in µM, leave out the unit.

Q. For the molecule Cn1cnc2c(F)c(Nc3ccc(Br)cc3Cl)c(C(=O)NOCCO)cc21 , give its measured IC50 value.
A. 0.854

Q. For the molecule CCCS(=O)(=O)Nc1ccc(F)c(C(=O)c2c[nH]c3ncc(-c4ccc(Cl)cc4)cc23)c1F , give its measured IC50 value.
A. 5.1

====

test system: SW-480; test: CellTiter-Glo growth inhibition, SW-480; type: cell-based, human; conditions: Homo sapiens, SW480, 384-well plates, ten-fold serial dilutions, ras-mutant line
pIC50: −log10 of the molar value.
Listed here are compounds together with their documented pIC50.

Answered cases to consult:
>>> df
                                   compound  readout_type     val
0  CCCS(=O)(=O)Nc1ccc(F)c(C(=O)c2c[nH]c3ncc(-c4ccc(Cl)cc4)cc23)c1F [Vemurafenib]         pIC50    5.16
1  Cn1cnc2c(F)c(Nc3ccc(Br)cc3Cl)c(C(=O)NOCCO)cc21 [Selumetinib]         pIC50  < 4.70

Below: the item to evaluate.
Q. For the compound OCCn1cc(-c2ccc3c(c2)CC/C3=N\O)c(-c2ccncc2)n1 [GDC0879] , give its measured pIC50 value.
A. < 4.70
